Target: CTLA-4 (Homo sapiens)
Sequence (P16410 36-223): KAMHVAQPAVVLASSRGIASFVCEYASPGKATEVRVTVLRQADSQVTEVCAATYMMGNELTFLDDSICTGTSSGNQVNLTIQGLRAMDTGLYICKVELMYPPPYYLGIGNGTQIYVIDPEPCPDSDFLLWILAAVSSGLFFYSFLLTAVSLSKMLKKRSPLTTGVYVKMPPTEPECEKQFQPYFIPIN
Experiment: ELISA binding of clones after Affinity Maturation with random library (Tables 10, 11)
Conditions: CTLA-4 binding ELISA of clones after Affinity Maturation from random (NNS) library; signal/noise ratio; clones of 4th or 5th round
Measurement label: ELISA S/N(SA)

- Substance: "C4m#19-5th2w-NNS6-79 (GGCRHPFLPIVSRHFCVA; C4m#19-5th2w-NNS6-79)"
  Result: 9.2

(a) C4m#19-5th2w-NNS6-27 (GGCFHPFLPIRSCHFCAR; C4m#19-5th2w-NNS6-27)
(b) C4m#19-5th4w-NN6-40 (GGCFHPFLPIRSHHFCML; C4m#19-5th4w-NN6-40)
**Query** Which of these two has the smaller recorded ELISA S/N(SA): a or b ? Selection: enter the item's label.
**Result** b
(b: 4.0, a: 9.9)

###

Target: CTLA-4 (Homo sapiens)
Sequence (P16410 36-223): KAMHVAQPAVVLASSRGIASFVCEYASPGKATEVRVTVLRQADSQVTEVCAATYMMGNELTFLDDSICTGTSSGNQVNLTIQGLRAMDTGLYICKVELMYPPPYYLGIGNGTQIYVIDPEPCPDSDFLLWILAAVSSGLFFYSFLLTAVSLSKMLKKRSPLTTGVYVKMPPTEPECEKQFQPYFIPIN
Test: ELISA binding of clones after Affinity Maturation with random library (Tables 10, 11)
Conditions: CTLA-4 binding ELISA of clones after Affinity Maturation from random (NNS) library; signal/noise ratio; clones of 4th or 5th round
Measurement label: ELISA S/N(SA)

Below, each entry is followed by its recorded ELISA S/N(SA) result.
- Substance: "C4m3127-4th-NNS6-28 (GGCLHPFLPIFSSHFCAL; C4m3127-4th-NNS6-28) [Clone C4m3127-4th-NNS6-28]"
  Target system: "CTLA-4 (Homo sapiens)"
  ELISA S/N(SA): 23.2
- Substance: "C4m3127-4th-NNS6-48 (GGCFHPWLPIASWHFCGR; C4m3127-4th-NNS6-48) [Clone C4m3127-4th-NNS6-48]"
  Target system: "CTLA-4 (Homo sapiens)"
  ELISA S/N(SA): 13.5
- Substance: "C4m#19-5th2w-NNS6-21 (GGCWHPFLPIRSSHFCPS; C4m#19-5th2w-NNS6-21)"
  Target system: "CTLA-4 (Homo sapiens)"
  ELISA S/N(SA): 31.1
- Substance: "C4m#19-5th2w-NNS6-75 (GGCWHPWLPIKSPHFCAL; C4m#19-5th2w-NNS6-75)"
  Target system: "CTLA-4 (Homo sapiens)"
  ELISA S/N(SA): 15.3
- Substance: "C4m#19-5th4w-NN6-71 (GGCPHPWLPIASVHFCPF; C4m#19-5th4w-NN6-71)"
  Target system: "CTLA-4 (Homo sapiens)"
  ELISA S/N(SA): 17.4
- Substance: "C4m#19-5th4w-NN6-36 (GGCRHPYLPIWSAHFCCR; C4m#19-5th4w-NN6-36)"
  Target system: "CTLA-4 (Homo sapiens)"
  ELISA S/N(SA): 5.7
- Substance: "C4m#19-5th2w-NNS6-30 (GGCWHPFLPILSWHFCGR; C4m#19-5th2w-NNS6-30)"
  Target system: "CTLA-4 (Homo sapiens)"
  ELISA S/N(SA): 9.0
- Substance: "C4m#19-5th4w-NN6-79 (GGCWHPVLPIRSCHFCAV; C4m#19-5th4w-NN6-79)"
  Target system: "CTLA-4 (Homo sapiens)"
  ELISA S/N(SA): 24.9
- Substance: "C4m#19-5th2w-NNS6-25 (GGCKHPFLPISSHHFCPY; C4m#19-5th2w-NNS6-25)"
  Target system: "CTLA-4 (Homo sapiens)"
  ELISA S/N(SA): 21.1
- Substance: "C4m#19-5th4w-NN6-65-1 (GGCWHPFLPISSPHFCGR; left off: large carriers; small tags and cut ends)"
  Target system: "CTLA-4 (Homo sapiens)"
  ELISA S/N(SA): 29.5

(I) C4m#19-5th2w-NNS6-43 (GGCRHPFLPIWSSHFCAA; C4m#19-5th2w-NNS6-43)
(II) C4m#19-5th2w-NNS6-45 (GGCRHPFLPIWSVHFCWR; C4m#19-5th2w-NNS6-45)
(III) C4m#19-5th4w-NN6-68 (GGCLHPWLPIRSRHFCSR; C4m#19-5th4w-NN6-68)
(IV) C4m#19-5th4w-NN6-14 (GGCWHPFLPIRSVHFCCR; C4m#19-5th4w-NN6-14)
**Query** Sort ascending by ELISA S/N(SA). Could you list the labels in the order requested?
**Result** I, II, IV, III

(A) C4m#19-5th4w-NN6-49 (GGCMHPYLPIRSFHFCSC; C4m#19-5th4w-NN6-49)
(B) C4m#19-5th2w-NNS6-33 (GGCRHPFLPIWSFHFCWG; C4m#19-5th2w-NNS6-33)
(C) C4m#19-5th4w-NN6-34 (GGCFHPFLPIRSDHFCSR; C4m#19-5th4w-NN6-34)
**Query** Could you please order the items by ELISA S/N(SA), going from the lowest number to the highest? Answer by listing the labels in the order asked for.
**Result** A, B, C
